assay: physchem
condition set: PAMPA, pH 7.4
Description: Permeability of the compound at 10 uM at pH 7.4 after 3 hrs by PAMPA
recorded endpoint: Papp at 3 h, 10 µM (×10⁻⁶ cm/s)

> print(dat)
                                smiles.data  unit.annotation  value.measured
1  O=C1Nc2cc(=O)n(Cc3ccccc3)cc2CN1c1cccc(OCc2cccnc2)c1       ×10⁻⁶ cm/s            14.2

1: O=C1Nc2cc(=O)n(Cc3ccccc3)cc2CN1c1cccc(OCc2cncs2)c1
2: O=C1Nc2cc(=O)n(Cc3ccccc3)cc2CN1c1cccc(OCc2ccccn2)c1
-- ask Pick the one with the larger Papp at 3 h, 10 µM: 1 vs 2 I would appreciate it if you answered with the label of your choice.
-- reply 2
(2: 27.3 ×10⁻⁶ cm/s, 1: 13.1 ×10⁻⁶ cm/s)
